experiment: Dog pharmacokinetic study; format: in vivo; conditions: dog, plasma, 67 ug/kg; male beagle dogs, intravenous 67 μg/kg
Where a SMILES comes first, the peptide text is derived from it. [ ]: non-standard residue; d: D form. ξ: configuration not given here. Ala(6-(2-MePh)pyridin-3-yl) = Cc1ccccc1-c1ccc(C[C@H](N)C(=O)O)cn1; Bip(2'-Et-4'-OMe) = CCc1cc(OC)ccc1-c1ccc(C[C@H](N)C(=O)O)cc1; ξαMePhe(2-F) = CC(N)(Cc1ccccc1F)C(=O)O; Thr(3ξ) = CC(O)[C@H](N)C(=O)O; Aib = CC(C)(N)C(=O)O
metric: MRT (h)
Numbers only, in h.

Record CCc1cc(OC)ccc1-c1ccc(C[C@H](NC(=O)[C@H](CC(=O)O)NC(=O)[C@H](CO)NC(=O)[C@@H](NC(=O)C(C)(Cc2ccccc2F)NC(=O)[C@@H](NC(=O)CNC(=O)[C@H](CCC(=O)O)NC(=O)C(C)(C)NC(=O)[C@@H](N)Cc2c[nH]cn2)C(C)O)C(C)O)C(=O)N[C@@H](Cc2ccc(-c3ccccc3C)nc2)C(N)=O)cc1 (stereo partly shown) [SEQ ID NO: 9] (H-H[Aib]EG[Thr(3ξ)][ξαMePhe(2-F)][Thr(3ξ)]SD[Bip(2'-Et-4'-OMe)][Ala(6-(2-MePh)pyridin-3-yl)]-NH2) , field MRT: 2.4

----------
So I've got a bunch of compounds here, and I need their Mean Hill values.
target: Human GLP-1 Receptor (Homo sapiens, UniProt P43220); construct: Full-length human glucagon-like peptide 1 receptor was stably expressed in CHO-K1 cells; expressed in transfected cells; host or cells: CHO-K1 (clone CHO-GLP1R-19); test: Cyclic AMP determination in CHO cells expressing human GLP-1 receptor; format: cell-based; conditions: human GLP-1 receptor
Sequence (P43220 24-463): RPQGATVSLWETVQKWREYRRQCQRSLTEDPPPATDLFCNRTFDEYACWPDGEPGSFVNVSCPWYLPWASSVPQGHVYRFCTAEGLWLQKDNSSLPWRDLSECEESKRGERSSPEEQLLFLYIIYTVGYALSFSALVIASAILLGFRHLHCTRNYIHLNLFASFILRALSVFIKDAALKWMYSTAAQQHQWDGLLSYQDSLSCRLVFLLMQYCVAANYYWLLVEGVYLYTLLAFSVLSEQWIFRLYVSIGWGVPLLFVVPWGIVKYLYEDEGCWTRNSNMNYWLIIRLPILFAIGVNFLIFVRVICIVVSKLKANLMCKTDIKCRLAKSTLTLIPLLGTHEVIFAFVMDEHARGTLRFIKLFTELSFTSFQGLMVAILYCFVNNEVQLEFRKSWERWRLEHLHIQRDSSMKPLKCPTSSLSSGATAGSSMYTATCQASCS
Where a SMILES comes first, the peptide text is derived from it. [ ]: non-standard residue; d: D form. The star is where a group is joined. ξ: configuration not given here. Ala(6-(2-MePh)pyridin-3-yl) = Cc1ccccc1-c1ccc(C[C@H](N)C(=O)O)cn1; Phe(4-(2-Et-4-HO-Ph)) = CCc1cc(O)ccc1-c1ccc(C[C@H](N)C(=O)O)cc1; ξαMePhe(2-F) = CC(N)(Cc1ccccc1F)C(=O)O; ξαMeP = CC1(C(=O)O)CCCN1; Moc = COC(=O)*
Numbers only.

| compound | system-tested | Mean Hill |
| --- | --- | --- |
| CCc1cc(O)ccc1-c1ccc(C[C@H](NC(=O)[C@H](CC(=O)O)NC(=O)[C@H](Cc2c[nH]cn2)NC(=O)[C@@H](NC(=O)[C@](C)(Cc2ccccc2F)NC(=O)[C@@H](NC(=O)CNC(=O)[C@H](CCC(=O)O)NC(=O)[C@]2(C)CCCN2C(=O)C(Cc2c[nH]cn2)OC)[C@@H](C)O)[C@@H](C)O)C(=O)N[C@@H](Cc2ccc(-c3ccccc3C)nc2)C(N)=O)cc1 (single isomer, unassigned) [SEQ ID NO: 176] | Human GLP-1 Receptor (Homo sapiens, UniProt P43220) | 3.1 |
| CCc1cc(O)ccc1-c1ccc(C[C@H](NC(=O)[C@H](CC(=O)O)NC(=O)[C@H](CO)NC(=O)[C@@H](NC(=O)[C@](C)(Cc2ccccc2F)NC(=O)[C@@H](NC(=O)CNC(=O)[C@H](CCC(=O)O)NC(=O)[C@]2(C)CCCN2C(=O)C(Cc2c[nH]cn2)OC)[C@@H](C)O)[C@@H](C)O)C(=O)N[C@@H](Cc2ccc(-c3ccccc3C)nc2)C(N)=O)cc1 (single isomer, unassigned) [SEQ ID NO: 173] | Human GLP-1 Receptor (Homo sapiens, UniProt P43220) | 2.6 |

Provide Mean Hill for all items below, preserving their order.
1. CCc1cc(O)ccc1-c1ccc(C[C@H](NC(=O)[C@H](CC(=O)O)NC(=O)[C@H](Cc2c[nH]cn2)NC(=O)[C@@H](NC(=O)C(C)(Cc2ccccc2F)NC(=O)[C@@H](NC(=O)CNC(=O)[C@H](CCC(=O)O)NC(=O)C2(C)CCCN2C(=O)[C@H](Cc2c[nH]cn2)NC(=O)OC)[C@@H](C)O)[C@@H](C)O)C(=O)N[C@@H](Cc2ccc(-c3ccccc3C)nc2)C(N)=O)cc1 (stereo partly shown) [SEQ ID NO: 157] (Moc-H[ξαMeP]EGT[ξαMePhe(2-F)]THD[Phe(4-(2-Et-4-HO-Ph))][Ala(6-(2-MePh)pyridin-3-yl)]-NH2)
2. CCc1cc(O)ccc1-c1ccc(C[C@H](NC(=O)[C@H](CC(=O)O)NC(=O)[C@H](CO)NC(=O)[C@@H](NC(=O)C(C)(Cc2ccccc2F)NC(=O)[C@@H](NC(=O)CNC(=O)[C@H](CCC(=O)O)NC(=O)C2(C)CCCN2C(=O)[C@H](Cc2c[nH]cn2)NC(=O)OC)[C@@H](C)O)[C@@H](C)O)C(=O)N[C@@H](Cc2ccc(-c3ccccc3C)nc2)C(N)=O)cc1 (stereo partly shown) [SEQ ID NO: 158] (Moc-H[ξαMeP]EGT[ξαMePhe(2-F)]TSD[Phe(4-(2-Et-4-HO-Ph))][Ala(6-(2-MePh)pyridin-3-yl)]-NH2)

a:
1.9
1.5
